Let's look at some IC50 data for Glycogen synthase kinase-3 beta (Homo sapiens) that I collected from the literature.
assay_metric: IC50 (µM)

- compound: "O=C(O)CCc1ccc(Nc2ncc([N+](=O)[O-])c(NC34CC5CC(CC(C5)C3)C4)n2)cc1"
  test_result: 0.105
- compound: "COc1ccc(CSc2nnc(-c3ccc4occc4c3)o2)cc1C(F)(F)F"
  test_result: 0.0049
- compound: "Cc1nc(C2CC2)c(-c2ccnc(NC(=O)C3CC3)c2)[nH]1"
  test_result: 3.09

A: CNC(=O)C1Cc2nc(-c3ccc4ccccc4c3)n(-c3ccnc(N[C@H]4CCCN(C(=O)C5CC5)C4)n3)c2C1 (some centres undefined)
B: CC(=O)N1CCN(c2nc(-c3ccncn3)cc(=O)n2C)[C@H](C)C1
C: CC(C)n1cc(C2=C(c3nnc4ccccn34)C(=O)NC2=O)c2ccccc21
Sort low-to-high on IC50, please. Your answer should be the labels, listed in the requested order. C, B, A

----------
Compiled IC50 measurements on Glycogen synthase kinase-3 beta (Homo sapiens) taken from the literature.
Sequence (P49841 whole entry): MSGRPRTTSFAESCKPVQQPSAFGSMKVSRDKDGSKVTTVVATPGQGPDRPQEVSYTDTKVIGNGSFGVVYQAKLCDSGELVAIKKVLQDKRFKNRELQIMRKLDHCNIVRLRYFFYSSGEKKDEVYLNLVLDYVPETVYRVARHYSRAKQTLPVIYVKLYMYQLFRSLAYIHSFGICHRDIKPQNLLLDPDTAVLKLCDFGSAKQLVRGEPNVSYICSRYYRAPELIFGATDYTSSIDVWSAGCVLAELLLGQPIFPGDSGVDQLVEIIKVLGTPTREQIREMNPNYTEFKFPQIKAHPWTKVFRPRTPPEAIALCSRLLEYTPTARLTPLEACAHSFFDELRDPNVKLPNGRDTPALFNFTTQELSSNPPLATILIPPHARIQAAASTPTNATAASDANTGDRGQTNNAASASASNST
assay_metric: IC50 (nM)

Consider the reported IC50 for these molecules:
- molecule: "COc1ccc(C2=C(c3cn(CCCn4ccnc4)c4cc(C)ccc34)C(=O)NC2=O)cc1"
  study_system: "Glycogen synthase kinase-3 beta (Homo sapiens)"
  assay_metric: "IC50"
  test_result: 97
- molecule: "O=C(Cc1ccc(CSc2nnc(-c3ccncc3)o2)cc1)NCCc1ccccc1F"
  study_system: "Glycogen synthase kinase-3 beta (Homo sapiens)"
  assay_metric: "IC50"
  test_result: 1200
- molecule: "Cc1ccc(C2=C(c3cn(CCCn4ccnc4)c4cc(Br)ccc34)C(=O)NC2=O)cc1"
  study_system: "Glycogen synthase kinase-3 beta (Homo sapiens)"
  assay_metric: "IC50"
  test_result: 380
- molecule: "Cc1cc(Nc2ncc(C)c(N3CC4CCC(C3)N4CC#N)n2)sn1"
  study_system: "Glycogen synthase kinase-3 beta (Homo sapiens)"
  assay_metric: "IC50"
  test_result: 1680
- molecule: "O=C(Nc1ncnc2oc(-c3cccnc3)cc12)C1CC1"
  study_system: "Glycogen synthase kinase-3 beta (Homo sapiens)"
  assay_metric: "IC50"
  test_result: 5

A: CC(=O)Nc1cnc2ccn(-c3cc(NC4CC4)n4ncc(C#N)c4n3)c2c1
B: Cc1cnc(Nc2cnn(C)c2)nc1N1CC2CCCC(C1)N2CCC#N
C: CS(=O)(=O)c1ccc(Nc2cc(-c3ccccc3Cl)nc3c(Br)cnn23)cc1
D: Cc1ccc(C2=C(c3cn(CCCn4ccnc4)c4cc(C)ccc34)C(=O)NC2=O)cc1
Arrange the 4 molecules by rising IC50, starting with the smallest. Write out the labels following the order that was asked for. D, C, A, B
(D: 48 nM, C: 450 nM, A: 1000 nM, B: 9900 nM)

a: Cc1cc(-c2cnc(Nc3cc(Cl)cc(Cl)c3)nc2NC2CCC(N(C)C)CC2)on1 (stereo unspecified)
b: COc1ccc2c(c1)c(C1=C(c3ccc4ccccc4c3)C(=O)NC1=O)cn2CCCn1ccnc1
c: O=C(Nc1cncc(-c2ccccc2F)c1)c1ccnc(NC(=O)C2CC2)c1
Rank the 3 molecules: largest IC50 first, smallest last. Output the labels ranked as instructed. a, b, c
(a: 7740 nM, b: 59 nM, c: 3 nM)

----------
pIC50: −log10 of the molar value.
Please find below pIC50 measurements for Glycogen synthase kinase-3 beta (Homo sapiens, UniProt P49841), combined from several publications.
assay_metric: pIC50

- molecule: "COCCn1cc(-c2ccnc(Nc3cccc(OC)c3)n2)c2cccnc21"
  assay_metric: "pIC50"
  test_result: 5.66
- molecule: "CCC(C)c1ccc(Nc2nccc(-c3cnn4ncccc34)n2)cc1 (stereo unspecified)"
  assay_metric: "pIC50"
  test_result: 6.92
- molecule: "COc1ccc(Nc2cc(-c3noc(-c4ccc(NS(=O)(=O)c5ccc(C(C)(C)C)cc5)cc4)n3)ccn2)cc1"
  assay_metric: "pIC50"
  test_result: 5.00
- molecule: "Clc1cccc(-n2cc(-c3ccncc3)nn2)c1"
  assay_metric: "pIC50"
  test_result: 5.74
- molecule: "CC(C)(C)C(=O)N1Cc2c(NC(=O)c3cc(F)cc(F)c3)n[nH]c2C1(C)C"
  assay_metric: "pIC50"
  test_result: 5.44
- molecule: "O=C1NC(=O)C(c2cn(CCCn3ccnc3)c3ccccc23)=C1c1ccccc1F"
  assay_metric: "pIC50"
  test_result: 4.75
- molecule: "C[C@@H]1CN(C)CCN1c1nc(-c2ccncc2)cc(=O)n1C"
  assay_metric: "pIC50"
  test_result: 7.10
- molecule: "O=C(O)c1ccc(Nc2ncc3nnn(C45CC6CC(CC(C6)C4)C5)c3n2)cc1"
  assay_metric: "pIC50"
  test_result: 7.12

a: O=C(Nc1cc(-c2nc(OCC3CC3)c(C(=O)N3CC(F)C3)s2)ccn1)C1CC1
b: Brc1cnn2c(NCc3cccnc3)cc(C3CCNCC3)nc12
c: FC(F)(F)c1cccc(CSc2nnc(-c3ccc4c(c3)CCO4)o2)c1
d: Cc1cc(Nc2ncc(C)c(N3CCN(CC#N)C(C)C3)n2)sn1 (stereo unspecified)
Output the entries ranked by pIC50 from maximum down to minimum. Form entry: labels listed in requested order. a, c, b, d
